B1: PLAGL1 (parent)
chain: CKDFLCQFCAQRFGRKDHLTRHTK

# Variants of: B1
# protocol-text: protein stability index of a GFP-peptide fusion (GPS, HEK-293T) (PSI 1-6); higher = more stable;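 further: lentivirally expressed fusions sorted by FACS into six bins by GFP to DsRed ratio, PSI derived from sequencing read proportions per bin multiplied by bin number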
# test-context: c terminus: a fixed tail appended
reported-metric: protein stability index

| residue-sequence | reported-metric | reported-measurement |
| --- | --- | --- |
| CKDFLCQFCAQRFGFKDHLTRHTK [R15F] | protein stability index | 1.79 |
| CKDFLCQFCAQRFGKKDHLTRHTK [R15K] | protein stability index | 2.52 |
| CKDFLCQFCAQTFGRKDHLTRHTK [R12T] | protein stability index | 1.88 |
| CKDFLCQFCGQRFGRKDHLTRHTK [A10G] | protein stability index | 1.79 |
| CKDFLCQFCAQYFGRKDHLTRHTK [R12Y] | protein stability index | 2 |
| CKDFLCQFCAKRFGRKDHLTRHTK [Q11K] | protein stability index | 2.02 |
| CKDFLCQFRAQRFGRKDHLTRHTK [C9R] | protein stability index | 1.45 |
| CKDFLCQFCAQRFHRKDHLTRHTK [G14H] | protein stability index | 2.13 |
| CKDFLCQFCAQRFGRKDHQTRHTK [L19Q] | protein stability index | 2.48 |
| CKDFLLQFCAQRFGRKDHLTRHTK [C6L] | protein stability index | 1.99 |
| CKDFLCQFCADRFGRKDHLTRHTK [Q11D] | protein stability index | 1.75 |
| CKDFLCQFCAQRFGRKDGLTRHTK [H18G] | protein stability index | 1.95 |
| CKDRLCQFCAQRFGRKDHLTRHTK [F4R] | protein stability index | 2.4 |
| CKDFLCQFCACRFGRKDHLTRHTK [Q11C] | protein stability index | 1.85 |
| CKDFLCQFCAQRFGRKDWLTRHTK [H18W] | protein stability index | 1.94 |
| CKDFLCQFCAQRFGRKDHLSRHTK [T20S] | protein stability index | 2.17 |
| CKDFLCQFCAQRFGRWDHLTRHTK [K16W] | protein stability index | 2.33 |
| CKDFLCQFCAQIFGRKDHLTRHTK [R12I] | protein stability index | 2.6 |
| CKDFLCQFCMQRFGRKDHLTRHTK [A10M] | protein stability index | 1.65 |
| CKDFLCQFCAQRFGRKDHLMRHTK [T20M] | protein stability index | 2.66 |
| CKDFLCQFCVQRFGRKDHLTRHTK [A10V] | protein stability index | 2.16 |
| CKDFLCYFCAQRFGRKDHLTRHTK [Q7Y] | protein stability index | 2.06 |
